Data origin: patent US10287320B2

Test system: SU-DHL-6 (diffuse large B cell lymphoma)
Format: cell-based, Human
Settings: 16 h
Ends that are not written are not given here.
# IC50 per record follows
Quantity Name: IC50

1) WRWRWGGRRRRRRR-NH2 [Peptide 6a, WRWRW-GG-RRRRRRR (SEQ ID NO: 14)] | < 10 µM
2) WRRRRRWRRRRW-NH2 [Peptide 11, WRRRRRWRRRRW (SEQ ID NO: 23)] | < 10 µM

====

Tested on: DU-145 Prostate carcinoma
Assay type: cell-based
Conditions: 4 h
pIC50: −log10 of the molar value. Ends that are not written are not given here.
Quantity Name: pIC50

1) WRRRRRWRRRRW-NH2 [Peptide 11, WRRRRRWRRRRW (SEQ ID NO: 23)] | 4.16

====

Test system: MRC-5 cells
Assay: MTT cytotoxicity assay against MRC-5 normal fibroblasts (selectivity, SI-1)
Format: cell-based, Human
Details: Table 2; analogues of 6a; MRC-5 fibroblasts versus A20 lymphoma, MTT
Ends that are not written are not given here.
Quantity Name: SI-1

1) WWWGGRRRRRRRRR [Peptide 6b, WWWGGRRRRRRRRR (SEQ ID NO: 21)] | 9
2) WRWRW-GG-RRRRR (SEQ ID NO: 19) (WRWRWGGRRRRR-NH2) [Peptide 9] | 23
3) WRWRW-GG-RRRRRR (SEQ ID NO: 18) [Peptide 8] | 21
4) WRWRW-GG-RRRR (SEQ ID NO: 20) (WRWRWGGRRRR-NH2) [Peptide 10] | >23
5) WRRRGRRWRGRRRW [Peptide 6c, WRRRGRRWRGRRRW (SEQ ID NO: 22)] | >100

====

System: Ramos (Burkitt's lymphoma)
Format: cell-based, Human
Conditions: 16 h
Ends that are not written are not given here.
Quantity Name: IC50

1) WRRRRRWRRRRW-NH2 [Peptide 11, WRRRRRWRRRRW (SEQ ID NO: 23)] | < 10 µM
2) WRWRWGGRRRRRRR-NH2 [Peptide 6a, WRWRW-GG-RRRRRRR (SEQ ID NO: 14)] | < 10 µM
